# testedTarget: T1, hCD112R mFC recombinant protein (human; murine, UniProt Q6DKI7 41-160)
# T1 construct: range 41-160; expressed in 293E cells; also called hCD112R ECD mFC; hCD112R-ECD-mFC; not shown: murine IgG2a Fc domain (MX2-mFc vector)
# T1 sequence (looked up): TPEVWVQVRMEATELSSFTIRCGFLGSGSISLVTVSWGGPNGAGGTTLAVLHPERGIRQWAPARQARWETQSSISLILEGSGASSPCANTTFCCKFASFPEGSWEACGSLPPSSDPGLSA
# method: ELISA, coated hCD112R-ECD-mFC
Entries annotated with measured EC50
Return type: number; implicit unit ng/mL.

Use these answered entries as a reference point.
>>> measuredvalue("Hu58 (antibody, IgG4, V domains shown, humanized IgG4) VH: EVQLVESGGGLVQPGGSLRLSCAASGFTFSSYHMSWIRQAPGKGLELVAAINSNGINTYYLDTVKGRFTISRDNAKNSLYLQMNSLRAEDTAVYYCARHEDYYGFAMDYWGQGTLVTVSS VL: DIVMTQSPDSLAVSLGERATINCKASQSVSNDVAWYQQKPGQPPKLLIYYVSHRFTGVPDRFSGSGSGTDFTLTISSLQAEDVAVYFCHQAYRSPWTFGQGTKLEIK")
4.88
>>> measuredvalue("Hu1 (antibody, IgG4, V domains shown, humanized IgG4; also called Hu-01) VH: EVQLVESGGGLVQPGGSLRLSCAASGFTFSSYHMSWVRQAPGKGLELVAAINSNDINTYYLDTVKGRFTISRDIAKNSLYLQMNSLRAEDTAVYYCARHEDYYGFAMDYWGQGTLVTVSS VL: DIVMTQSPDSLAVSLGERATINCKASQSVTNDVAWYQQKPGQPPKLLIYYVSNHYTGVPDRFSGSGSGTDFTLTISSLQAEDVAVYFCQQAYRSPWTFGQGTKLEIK")
2.76
>>> measuredvalue("Hu12 (antibody, IgG4, V domains shown, humanized IgG4) VH: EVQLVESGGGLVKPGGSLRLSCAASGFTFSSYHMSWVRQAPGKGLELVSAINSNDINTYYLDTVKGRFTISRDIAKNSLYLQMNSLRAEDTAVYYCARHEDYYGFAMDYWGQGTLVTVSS VL: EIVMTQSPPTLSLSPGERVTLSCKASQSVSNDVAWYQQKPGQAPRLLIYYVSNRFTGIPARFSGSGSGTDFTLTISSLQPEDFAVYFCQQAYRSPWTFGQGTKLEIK")
2.88

Would you kindly look at the next entry?
Q. For the binder Hu23 (antibody, IgG4, V domains shown, humanized IgG4) VH: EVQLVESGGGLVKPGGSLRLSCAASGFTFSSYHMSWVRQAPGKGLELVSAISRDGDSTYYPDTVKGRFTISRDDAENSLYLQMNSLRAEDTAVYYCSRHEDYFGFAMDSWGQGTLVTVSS VL: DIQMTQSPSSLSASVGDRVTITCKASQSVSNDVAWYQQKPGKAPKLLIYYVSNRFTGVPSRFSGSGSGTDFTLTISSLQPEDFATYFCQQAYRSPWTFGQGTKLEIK , what EC50 is on record?
A. 4.36
